Target Of Assay: Estrogen receptor (Bos taurus) (UniProt Q9XSB5+P49884)
Procedure Details: Relative binding affinity for calf uterine estrogen receptor compared to [3H]estradiol
Assay type: protein assay
Values of relative binding affinity (RBA) greater than or equal to 3 map to True; values below map to False.

Q: Does the molecule COc1cc(O)ccc1C(C)(C)C(C)(C)c1ccc(O)cc1OC have recorded relative binding affinity (RBA) that is 3 or more?
A: False

Q: Try CC(C)(c1ccc(O)cc1)C(C)(C)c1ccc(O)cc1 next.
A: True

Q: Try CC(C)(c1ccc(O)cc1Cl)C(C)(C)c1ccc(O)cc1Cl next.
A: True

Q: Try CC(C)(c1cc(O)ccc1Cl)C(C)(C)c1cc(O)ccc1Cl next.
A: True

Q: Try COc1ccc(O)cc1C(C)(C)C(C)(C)c1cc(O)ccc1OC next.
A: False

Q: Try CC(C)(c1ccc(O)cc1F)C(C)(C)c1ccc(O)cc1F next.
A: True

Q: Try CC(C)(c1cc(O)ccc1F)C(C)(C)c1cc(O)ccc1F next.
A: True

Q: Try Cc1cc(O)ccc1C(C)(C)C(C)(C)c1ccc(O)cc1C next.
A: False

Q: Try Cc1ccc(O)cc1C(C)(C)C(C)(C)c1cc(O)ccc1C next.
A: False

Q: Try CC(C)(c1cc(O)cc(Cl)c1)C(C)(C)c1cc(O)cc(Cl)c1 next.
A: False

Origin of measurements: ChEMBL document CHEMBL1123042
